- Tested target: UniProt P29317
- Sequence (P29317 whole entry): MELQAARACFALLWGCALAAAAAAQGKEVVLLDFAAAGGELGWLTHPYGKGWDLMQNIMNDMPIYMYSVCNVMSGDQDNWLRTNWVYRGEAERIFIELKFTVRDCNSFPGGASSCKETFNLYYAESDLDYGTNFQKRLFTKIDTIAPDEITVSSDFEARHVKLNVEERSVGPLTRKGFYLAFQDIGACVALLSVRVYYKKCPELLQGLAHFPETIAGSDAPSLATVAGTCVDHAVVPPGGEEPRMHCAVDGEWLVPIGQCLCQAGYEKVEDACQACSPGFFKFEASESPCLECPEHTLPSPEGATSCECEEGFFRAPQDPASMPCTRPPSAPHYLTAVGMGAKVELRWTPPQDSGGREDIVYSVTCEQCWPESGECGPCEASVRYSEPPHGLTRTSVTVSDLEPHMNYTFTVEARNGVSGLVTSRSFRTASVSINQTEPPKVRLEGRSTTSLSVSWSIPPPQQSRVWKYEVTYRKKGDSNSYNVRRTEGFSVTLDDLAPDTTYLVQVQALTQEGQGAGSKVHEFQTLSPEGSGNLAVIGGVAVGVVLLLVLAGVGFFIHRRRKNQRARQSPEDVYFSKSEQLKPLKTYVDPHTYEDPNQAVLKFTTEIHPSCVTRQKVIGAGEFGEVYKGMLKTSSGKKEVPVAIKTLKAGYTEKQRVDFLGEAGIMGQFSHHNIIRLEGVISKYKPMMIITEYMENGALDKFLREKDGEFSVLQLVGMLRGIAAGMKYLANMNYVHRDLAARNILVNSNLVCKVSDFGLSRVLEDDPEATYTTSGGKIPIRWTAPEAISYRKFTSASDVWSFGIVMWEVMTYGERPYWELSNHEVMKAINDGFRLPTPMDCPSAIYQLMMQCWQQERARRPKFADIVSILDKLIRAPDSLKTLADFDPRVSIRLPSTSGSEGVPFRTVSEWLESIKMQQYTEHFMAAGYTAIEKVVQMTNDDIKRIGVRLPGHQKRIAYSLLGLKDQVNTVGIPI
- Protocol description: Inhibition of recombinant human EPHA2 using poly (Glu, Tyr) 4:1 as substrate after 60 mins by ELISA
Property label: IC50

INSERT INTO measurements (mol, tested_target, measured) VALUES
  ('C[C@@H](Oc1ccc2[nH]nc(-c3nc4cc(N5CCN(C)CC5)ccc4[nH]3)c2c1)c1c(Cl)cncc1Cl', 'UniProt P29317', '> 100 nM');

---

The entries below come with measured AUC(0-inf) values attached.
- Protocol description: AUC (0 to infinity) in Sprague-Dawley rat at 5 mg/kg, po
- Assay type: ADME, organism-based
- Parameters: dose 5 mg/kg, route oral, time infinity
- Test parameters: in vivo
Property label: AUC(0-inf) (ng·h/mL)

INSERT INTO measurements (mol, readout_unit, measured) VALUES
  ('C[C@@H](Oc1ccc2[nH]nc(-c3nc4cc(N5CCN(C)CC5)ccc4[nH]3)c2c1)c1c(Cl)cncc1Cl', 'ng·h/mL', 799),
  ('C[C@@H](Oc1ccc2[nH]nc(-c3nc4cc(CCO)ccc4[nH]3)c2c1)c1c(Cl)cncc1Cl', 'ng·h/mL', 664);

Just for reference, ChEMBL document CHEMBL3826910 is where these values come from.
